Tested on: SK-OV-3 ovarian
Experiment: NCI-60 one-dose screen, 48 h (100 = growth as untreated, 0 = no growth, -100 = all killed)
Details: 10 µM unless noted
Compounds without any hit were thinned out: in the full panel of roughly 83,000, 20% have a hit.
The entries below come with measured growth values attached.
Enter your answer as a number in %; do not include the unit.

Worked examples follow.
[[record]]
smiles_string = "CN(C)C(=O)c1cc2cnc(Nc3ccc(-c4csc5c(=O)cc(N6CCNCC6)oc45)cc3)nc2n1C1CCCC1"
obs_value = 32.2

[[record]]
smiles_string = "COc1ccccc1N1CCN(CCn2c(=O)c3c(c4ccccc4n3C)n(C)c2=O)CC1"
obs_value = 93.6

[[record]]
smiles_string = "COc1cc2cc(COc3nccc(-c4ccc(Cl)cc4)n3)c(=O)[nH]c2cc1OC"
obs_value = 89.9

[[record]]
smiles_string = "Cc1[nH]n(-c2ccccc2)c2nc3nncc3c(-c3ccc(Cl)cc3)c12"
obs_value = 105

[[record]]
smiles_string = "NCc1cn2cc(Cl)sc2n1"
obs_value = 103


The recorded growth for CCCCCCCCCCCCCCCCCCSC1=CC(=O)C(OC)=C(OC)C1=O is 95.7
